# STUDY_TARGET: High affinity choline transporter 1 (Homo sapiens)
# ASSAY_INFO: inhibitors of human choline transporter CHT (AID 488975)
# RECORDED_CONDITIONS: CHT-expressing cells, membrane potential dye, choline response, at 10 µM
Among all 310,000 compounds or so, about 2,600 (0.84%) were called active.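 How the source made its calls: active means B-score over 3 SD under the library average, and starting fluorescence ratio not unusually high; inactive means the rest.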 For the sample, actives were picked, then their nearest neighbours and some compounds at random.
Respond using exactly one of the listed classes: label 1 (active), label 0 (inactive)

For this molecule, state the assay outcome: CCC(C)c1ccc(NC(=S)NCc2ccccn2)cc1 (stereo not drawn)
label 1

Record lookup: outcome of this test for `O=C(CCNC(=O)c1ccc(Br)cc1)Nc1cccc(S(=O)(=O)N2CCCCC2)c1` ?
label 0

What did the test return for `CCN(CC)CCn1c2c(c(SCC(=O)Nc3nc4ccccc4s3)nc1=O)CCCC2` ?
label 0

How was `CC1(C)CC(=O)c2ccc(O)cc2O1` classified in this test?
label 0

Query: recorded result category for `COc1cc(C(=O)N(C)Cc2cccc(OC)c2OC)ccc1OCC(=O)Nc1cccc(C(F)(F)F)c1` in this test
label 0

What did this assay record as the result for `Cc1ccc(SCC(=O)Nc2nncs2)cc1` ?
label 0

# outcome recorded in this test, key = `Cc1ccc(Cl)c(OCC(=O)N(C)CC(=O)Nc2ccc(N3CCOCC3)cc2)c1`
label 0

Name the outcome recorded for `O=C(NCc1ccccn1)Nc1ccc(Cl)cc1` in the assay.
label 0

# outcome recorded in this test, key = `Cc1ccc(NNC(=O)c2cccs2)cc1Cl`
label 1

Recorded test call requested for CCNC(=O)CC1C(=O)N(c2ccc(F)cc2)C(=O)N1CCc1sccc1C (stereo not drawn)
label 1

What classification did `O=C(Nc1ccncc1)c1ccccc1[N+](=O)[O-]` end up with in this test?
label 0

----------
# STUDY_TARGET: High affinity choline transporter 1 (Homo sapiens) (UniProt Q9GZV3)
# Sequence (Q9GZV3 whole entry, looked up): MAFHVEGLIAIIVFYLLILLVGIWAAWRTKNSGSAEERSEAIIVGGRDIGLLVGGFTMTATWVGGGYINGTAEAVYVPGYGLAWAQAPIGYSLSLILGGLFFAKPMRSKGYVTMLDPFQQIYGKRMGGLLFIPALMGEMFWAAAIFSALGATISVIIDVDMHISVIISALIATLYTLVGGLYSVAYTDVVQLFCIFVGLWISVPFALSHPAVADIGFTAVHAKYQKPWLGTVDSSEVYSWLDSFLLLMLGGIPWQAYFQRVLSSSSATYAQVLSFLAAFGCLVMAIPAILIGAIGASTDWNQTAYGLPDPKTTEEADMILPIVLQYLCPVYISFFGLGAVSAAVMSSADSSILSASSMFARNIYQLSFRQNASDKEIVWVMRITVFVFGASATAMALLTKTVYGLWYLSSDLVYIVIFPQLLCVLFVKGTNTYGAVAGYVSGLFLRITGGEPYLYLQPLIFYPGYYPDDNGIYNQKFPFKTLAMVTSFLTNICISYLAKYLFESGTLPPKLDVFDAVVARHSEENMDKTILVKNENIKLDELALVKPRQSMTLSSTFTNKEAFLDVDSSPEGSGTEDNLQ
# ASSAY_INFO: inhibitors of human choline transporter CHT (AID 488975);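 on B-score: choline stimulus applied at its EC90 after an EC20 pre-addition; B-score computed on integrated fluorescence ratio after choline addition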
# RECORDED_CONDITIONS: CHT-expressing cells, membrane potential dye, choline response, at 10 µM; active compounds read low
Hit rate of the full screen: of about 310,000 compounds, about 2,600 (0.84%) were called active. The list comes from a sample in which actives are over-represented; it also holds close analogues and randomly drawn compounds.
ATTRIBUTE_MEASURED: B-score

Answered cases to consult:
Cc1cc(NS(=O)(=O)c2ccc(NC(=O)c3cccc(OC(F)F)c3)cc2)nc(C)n1 :: inactive
CC(Oc1cccc(Cl)c1)C(=O)Nc1ccc(S(=O)(=O)Nc2ncccn2)cc1 (stereo not given) :: inactive
Cc1cc(OC(C)C(=O)Nc2ccc(S(=O)(=O)Nc3onc(C)c3C)cc2)cc(C)c1Cl (stereo not given) :: -4.96 (active)
COc1ccc(C(=O)Nc2ccc(S(=O)(=O)Nc3onc(C)c3C)cc2)cc1OC :: inactive

Note: attention shifts to another entry.
Give the measured B-score of `CCOc1ccc(CC(=O)Nc2ccc(S(=O)(=O)Nc3cc(C)on3)cc2)cc1OCC` .
inactive

----------
# STUDY_TARGET: High affinity choline transporter 1 (Homo sapiens)
# ASSAY_INFO: inhibitors of human choline transporter CHT (AID 488975)
# RECORDED_CONDITIONS: CHT-expressing cells, membrane potential dye, choline response, at 10 µM
About 2,600 (0.84%) of roughly 310,000 compounds were called active.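 The calls were made as follows: active = B-score over 3 SD under the library average, and starting fluorescence ratio not unusually high; inactive = the rest.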 This is one part of a sample in which actives are shown more often than they occur.
Answer with one of the outcomes given here: t for active, f for inactive

CCCCN(C(=O)CSCC(=O)Nc1ccc(OC)cc1)c1c(N)n(CCC)c(=O)[nH]c1=O :: f

Alright, here's another compound for you.
Fill in: this test's call for COc1ccc(NS(=O)(=O)c2ccc(C)c(C(=O)NCC(c3cccs3)N3CCOCC3)c2)cc1 (configuration not stated) is ___
f

Every entry's value here was drawn from PubChem BioAssay AID488975.
